System: U937 viability, trypan blue exclusion, 24 h
Experiment summary: viability loss in U937 leukemia cells – cell-based, trypan blue exclusion, cytotoxicity control for Cdc42 probe extension project, late-stage follow-up (AID 651732)
Recorded conditions: at 30 µM (top of the series)
Property name: viability ratio to DMSO
Give the figure by itself; no unit, no explanation.

Request: Request the reported viability ratio to DMSO associated with COc1ccc(C2CC(c3ccccc3)=NN2c2ccc(S(N)(=O)=O)cc2)cc1 (stereo unspecified)
Result: 0.19
